Known pIC50 of a selection of compounds
# target of assay: UniProtKB P27338
# Sequence (P27338 whole entry): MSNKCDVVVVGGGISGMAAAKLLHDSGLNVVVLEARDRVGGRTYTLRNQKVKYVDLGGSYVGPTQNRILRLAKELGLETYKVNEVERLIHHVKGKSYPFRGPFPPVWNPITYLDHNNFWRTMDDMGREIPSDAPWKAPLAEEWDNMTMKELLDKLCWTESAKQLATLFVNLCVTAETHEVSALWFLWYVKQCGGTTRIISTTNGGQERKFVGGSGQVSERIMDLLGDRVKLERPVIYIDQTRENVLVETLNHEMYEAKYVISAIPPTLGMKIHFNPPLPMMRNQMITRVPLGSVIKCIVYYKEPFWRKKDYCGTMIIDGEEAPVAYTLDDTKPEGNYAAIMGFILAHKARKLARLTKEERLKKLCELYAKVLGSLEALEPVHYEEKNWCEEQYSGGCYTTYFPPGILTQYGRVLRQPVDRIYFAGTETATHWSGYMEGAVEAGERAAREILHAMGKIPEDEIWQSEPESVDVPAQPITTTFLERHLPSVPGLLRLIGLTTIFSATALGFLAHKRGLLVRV
# experiment summary: Inhibition of recombinant human MAO-B using kynuramine as substrate after 30 mins by fluorescence assay
Give only the number. pIC50 is defined as minus log10 of concentration in molar units.

**Q:** For the compound shown here, `CCN(CCCCn1sc2cc(OC)c(OC)cc2c1=O)Cc1ccc(N(C)C)cc1` , give the reported pIC50.
**A:** 4.73

**Q:** Also need `COc1cc2sn(CCCCCCN(C)Cc3ccccc3)c(=O)c2cc1OC` , thanks.
**A:** 4.88

**Q:** And for `CCN(CCCCn1sc2cc(OC)c(OC)cc2c1=O)Cc1ccccc1` ?
**A:** 4.70

**Q:** Query `COc1ccccc1CN(C)CCCCn1sc2cc(OC)c(OC)cc2c1=O` next
**A:** 4.72

**Q:** Then this compound: `CCN(CCCCCCn1sc2cc(OC)c(OC)cc2c1=O)Cc1ccccc1N(C)C`
**A:** 4.71

**Q:** Also, `CCN(CCCCn1sc2cc(OC)c(OC)cc2c1=O)Cc1ccccc1OC` please.
**A:** 4.71

**Q:** Next entry: `COc1ccccc1CN(C)CCCCCCn1sc2cc(OC)c(OC)cc2c1=O`
**A:** 4.86

**Q:** Moving on to `CCN(CCCCCCn1sc2cc(OC)c(OC)cc2c1=O)Cc1ccc(N(C)C)cc1`
**A:** 4.91

Continuing:
**Q:** Need pIC50, item `CCN(CCCCCCn1sc2cc(OC)c(OC)cc2c1=O)Cc1ccccc1`
**A:** 4.70

**Q:** Repeat with `COc1cc2sn(CCCCN(C)Cc3ccccc3)c(=O)c2cc1OC`
**A:** 4.71

----------
# Species on record: Homo sapiens
# experiment summary: Selectivity index, ratio of IC50 for recombinant human MAO-A to IC50 for recombinant human MAO-B
Each item that follows carries a reported Ratio IC50.

// solved cases for Ratio IC50 follow
**Q:** Would you mind telling me what Ratio IC50 value was observed for `COc1ccccc1CN(C)CCCCn1sc2cc(OC)c(OC)cc2c1=O` ?
**A:** 0.37

**Q:** Follow-up item: `COc1cc2sn(CCCCCCN(C)Cc3ccccc3)c(=O)c2cc1OC`
**A:** 1.74

**Q:** Consider next the molecule `CCN(CCCCn1sc2cc(OC)c(OC)cc2c1=O)Cc1ccccc1OC` in the same way.
**A:** 0.49

New cases:
**Q:** Could you tell me which Ratio IC50 is on file for `COc1cc2sn(CCCCN(C)Cc3ccccc3)c(=O)c2cc1OC` ?
**A:** 0.45

**Q:** Now the same for `CCN(CCCCCCn1sc2cc(OC)c(OC)cc2c1=O)Cc1ccc(N(C)C)cc1`
**A:** 0.57

**Q:** Proceed to `COc1ccccc1CN(C)CCCCCCn1sc2cc(OC)c(OC)cc2c1=O`
**A:** 1.45

**Q:** Repeat for the following molecule: `CCN(CCCCCCn1sc2cc(OC)c(OC)cc2c1=O)Cc1ccccc1`
**A:** 0.41

**Q:** Moving on to `CCN(CCCCn1sc2cc(OC)c(OC)cc2c1=O)Cc1ccc(N(C)C)cc1`
**A:** 0.85

**Q:** Same again, this time with `CCN(CCCCn1sc2cc(OC)c(OC)cc2c1=O)Cc1ccccc1`
**A:** 0.99

**Q:** Then what about the molecule `CCN(CCCCCCn1sc2cc(OC)c(OC)cc2c1=O)Cc1ccccc1N(C)C` ?
**A:** 0.17

----------
Papp at 18 h, 100 ug/ml overview
# experiment summary: Effective permeability of the compound at 100 ug/ml after 18 hrs by PAMPA-BBB assay
# output: bare number, implied unit ×10⁻⁶ cm/s

**Q:** Query: Papp at 18 h, 100 ug/ml; subject: `CCN(CCCCCCn1sc2cc(OC)c(OC)cc2c1=O)Cc1ccccc1`
**A:** 15.6

Then this compound:
**Q:** Which value of Papp at 18 h, 100 ug/ml has been reported for `CCN(CCCCCCn1sc2cc(OC)c(OC)cc2c1=O)Cc1ccccc1OC` in the records?
**A:** 4.32

----------
Parameter inhibition: see the listing below.
# target of assay: Amyloid-beta precursor protein (Homo sapiens) (UniProt P05067)
# Sequence (P05067 whole entry): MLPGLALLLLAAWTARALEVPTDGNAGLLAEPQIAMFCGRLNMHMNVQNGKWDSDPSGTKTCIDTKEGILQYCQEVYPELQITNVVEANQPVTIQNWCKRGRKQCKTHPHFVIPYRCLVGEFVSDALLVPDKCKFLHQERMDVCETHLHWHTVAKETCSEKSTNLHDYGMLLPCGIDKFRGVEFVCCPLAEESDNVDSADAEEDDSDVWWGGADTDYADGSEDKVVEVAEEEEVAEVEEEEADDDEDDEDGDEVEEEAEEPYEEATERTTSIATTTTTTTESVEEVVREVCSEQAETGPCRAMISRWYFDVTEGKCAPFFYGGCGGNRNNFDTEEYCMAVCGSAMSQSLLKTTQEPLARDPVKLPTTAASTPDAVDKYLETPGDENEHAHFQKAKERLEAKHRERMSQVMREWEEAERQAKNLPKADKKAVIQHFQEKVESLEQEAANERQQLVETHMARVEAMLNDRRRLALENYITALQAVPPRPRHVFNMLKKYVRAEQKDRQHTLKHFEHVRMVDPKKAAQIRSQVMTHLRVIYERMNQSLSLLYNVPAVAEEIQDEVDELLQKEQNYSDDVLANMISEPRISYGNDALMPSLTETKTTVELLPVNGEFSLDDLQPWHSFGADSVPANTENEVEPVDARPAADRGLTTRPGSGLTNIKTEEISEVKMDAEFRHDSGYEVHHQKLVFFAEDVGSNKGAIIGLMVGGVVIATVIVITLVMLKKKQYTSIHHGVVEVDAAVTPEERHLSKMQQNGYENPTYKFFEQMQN
# experiment summary: Inhibition of self-induced aggregation of amyloid beta (1 to 42) (unknown origin) at 25 uM after 24 hrs by thioflavin T fluorescence-based fluorometric method relative to control
Expressed in %, but write only the number.

These solved cases illustrate the format of a correct answer.
**Q:** Query (compound): `CCN(CCCCCCn1sc2cc(OC)c(OC)cc2c1=O)Cc1ccc(N(C)C)cc1` ; field requested: inhibition
**A:** 33.4

**Q:** And then `CCN(CCCn1sc2cc(OC)c(OC)cc2c1=O)Cc1ccccc1OC` , what is it?
**A:** 12.4

**Q:** Please do the same for `CCN(CCCn1sc2cc(OC)c(OC)cc2c1=O)Cc1ccccc1N(C)C` as well.
**A:** 19.8

**Q:** Same read-out for `CCN(CCCCn1sc2cc(OC)c(OC)cc2c1=O)Cc1ccc(N(C)C)cc1` ?
**A:** 32.5

***
**Q:** Can you look up the measured inhibition of `CCN(CCCCCCn1sc2cc(OC)c(OC)cc2c1=O)Cc1ccccc1` for me?
**A:** 35.4

**Q:** Thanks! And `COc1ccccc1CN(C)CCCCCCn1sc2cc(OC)c(OC)cc2c1=O` ?
**A:** 20.2

**Q:** CCN(CCCCCCn1c(=O)c2cc(OC)c(OC)cc2[s+]1[O-])Cc1ccccc1 (configuration not stated) ?
**A:** 29.2

----------
# target of assay: Amine oxidase [flavin-containing] A (Homo sapiens, UniProt P21397)
# Sequence (P21397 whole entry): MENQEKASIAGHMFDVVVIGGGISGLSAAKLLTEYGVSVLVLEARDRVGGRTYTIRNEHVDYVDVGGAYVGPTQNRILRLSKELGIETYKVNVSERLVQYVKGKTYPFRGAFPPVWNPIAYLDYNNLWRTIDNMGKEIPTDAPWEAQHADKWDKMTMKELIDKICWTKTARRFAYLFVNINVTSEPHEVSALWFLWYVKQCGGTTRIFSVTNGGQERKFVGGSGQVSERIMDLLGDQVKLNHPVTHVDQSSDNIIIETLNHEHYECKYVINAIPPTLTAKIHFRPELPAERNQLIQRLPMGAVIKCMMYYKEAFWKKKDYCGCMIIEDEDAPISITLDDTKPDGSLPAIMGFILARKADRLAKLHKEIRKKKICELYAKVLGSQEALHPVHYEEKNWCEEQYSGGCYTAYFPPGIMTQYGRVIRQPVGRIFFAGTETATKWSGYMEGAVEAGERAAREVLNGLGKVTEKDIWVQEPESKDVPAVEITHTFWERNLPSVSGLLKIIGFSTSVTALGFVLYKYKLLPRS
# experiment summary: Inhibition of recombinant human MAO-A at 10 uM using kynuramine as substrate after 30 mins by fluorescence assay relative to control
# condition label: 0.5 h
Measured inhibition at 10 µM of individual entries
# value in %; strip the unit string

**Q:** // inhibition at 10 µM lookup, key: `CCN(CCCCCCN1C(=O)c2cc(OC)c(OC)cc2S1(=O)=O)Cc1ccccc1`
**A:** 30.2

**Q:** What would you report for CCN(CCCCCCn1c(=O)c2cc(OC)c(OC)cc2[s+]1[O-])Cc1ccccc1 (centres undefined) ?
**A:** 21.5

**Q:** Now consider COc1ccccc1CN(C)CCCCCCn1c(=O)c2cc(OC)c(OC)cc2[s+]1[O-] (centres undefined) and answer again.
**A:** 23.8

**Q:** Subsequent entry: `COc1ccccc1CN(C)CCCCCCN1C(=O)c2cc(OC)c(OC)cc2S1(=O)=O`
**A:** 28.1

----------
# target of assay: Amine oxidase [flavin-containing] A (Homo sapiens)
# experiment summary: Inhibition of recombinant human MAO-A using kynuramine as substrate after 30 mins by fluorescence assay
pIC50: −log10 of the molar value.
Label TRUE when pIC50 is at or above 5; anything below gets FALSE.

**Q:** For this compound, is measured pIC50 5 or higher? `CCN(CCCCn1sc2cc(OC)c(OC)cc2c1=O)Cc1ccc(N(C)C)cc1`
**A:** FALSE

**Q:** Also check `COc1cc2sn(CCCN(C)Cc3ccccc3)c(=O)c2cc1OC`
**A:** TRUE

**Q:** Request: `COc1ccccc1CN(C)CCCCCCn1sc2cc(OC)c(OC)cc2c1=O`
**A:** FALSE

**Q:** And what about the compound `CCN(CCCCn1sc2cc(OC)c(OC)cc2c1=O)Cc1ccccc1` ?
**A:** FALSE

Others:
**Q:** Kindly determine if pIC50 recorded for `CCN(CCCCCCn1sc2cc(OC)c(OC)cc2c1=O)Cc1ccc(N(C)C)cc1` is above or exactly 5.
**A:** TRUE

**Q:** How about this compound: `COc1cc2s[nH]c(=O)c2cc1OC`
**A:** FALSE
